- assay details: GDH-TPI coupling enzyme inhibitors, primary screen, artefact control for M. tuberculosis FBA inhibitor project, biochemical, absorbance, full deck (AID 588335);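 note: 0% = DMSO wells and 100% = wells lacking the enzyme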
- condition summary: GDH-TPI coupled enzyme counterscreen, NADH absorbance; at 4.8 µM; hits give high values
In all, about 360,000 compounds went through this assay and about 4,500 (1.2%) were called active. Only a selection was taken, and actives are over-represented in it overall.
parameter measured: inhibition (%)
Give the value, in units of %, as a plain number.

Observe how each entry below is paired with its result.
CCCCSc1[nH]c(=O)c(C(=O)OCC)cc1C#N    36.1
NC(=O)Cn1cc(C(=O)c2ccccc2F)c2ccccc21    1.25
CCn1c(SCC(=O)NC2CC2)nnc1-c1ccccc1OC    -0.34
COCCN1C(=O)C(=O)/C(=C(/O)c2ccc(S(=O)(=O)N3CCOCC3)cc2)C1c1ccc(O)c(OC)c1 (configuration not stated)    5.9
CCCN(CC(=O)NC(=O)NC1CCCCC1)CC(=O)Nc1cc(Cl)ccc1Cl    -7.58
CC(C)=CC(=O)Nc1nnc(-c2ccc(F)cc2)s1    2.46
CN1CCCc2cc(C#N)c(=O)[nH]c21    34.1
O=C(NCc1cccs1)c1ccc2c(c1)ncn2C1CCCC1    -1.75
CCOc1cc(C2/C(=C(/O)c3ccc(S(=O)(=O)N4CCCCC4)cc3)C(=O)C(=O)N2CCOC)ccc1O (configuration not stated)    0.74
COCCN1C(=O)C(=O)/C(=C(/O)c2ccc(S(=O)(=O)N3CCCCC3)cc2)C1c1ccc(OC)c(OC)c1 (configuration not stated)    33.3

Req: For N#Cc1c(-c2ccccc2)nc(SCc2cccc(C(F)(F)F)c2)[nH]c1=O , write its inhibition.
Resp: -3.35

Req: For O=c1c2ccccc2nc2n1C(CSCc1ccccc1)CS2 (configuration not stated) , write its inhibition.
Resp: 2.03

Req: For CCOC(=O)c1ccc(COC(=O)c2cc(=O)[nH]c3ccccc23)o1 , write its inhibition.
Resp: 7.46

Req: For COc1cccc(C2/C(=C(/O)c3ccc(F)cc3)C(=O)C(=O)N2CCN(C)C)c1 (configuration not stated) , write its inhibition.
Resp: 10.2

Req: For COc1ccc(C2/C(=C(/O)c3ccc(OC(C)C)cc3)C(=O)C(=O)N2CCCN2CCOCC2)cc1 (configuration not stated) , write its inhibition.
Resp: 11.5

Req: For CCn1cc(/C=C(\NC(=O)c2cc(OC)c(OC)c(OC)c2)C(=O)N2CCN(C)CC2)c2ccccc21 , write its inhibition.
Resp: 27.5

Req: For O=c1c2ccccc2nc2n1C(CSCc1cccc(C(F)(F)F)c1)CS2 (configuration not stated) , write its inhibition.
Resp: 32.9

Req: For COc1ccc(O)c(C(=O)c2cnc3onc(C(C)C)c3c2)c1 , write its inhibition.
Resp: 5.83

Req: For O=C1C(=O)N(CCN2CCOCC2)C(c2cccc(Cl)c2)/C1=C(/O)c1ccc2c(c1)OCO2 (configuration not stated) , write its inhibition.
Resp: 17.7

Req: For OC(c1ccccc1)c1nc(-c2cnc3ccccc3c2)cs1 (configuration not stated) , write its inhibition.
Resp: -3.54

Req: For COc1ccccc1C(=O)N/C(=C/c1ccco1)C(=O)Nc1ccc(C(=O)O)cc1 , write its inhibition.
Resp: 1.49

Req: For Cn1c(=O)c2c(nc(N3CCCCCC3)n2CC(O)COc2ccc(Cl)cc2)n(C)c1=O (configuration not stated) , write its inhibition.
Resp: 3.88

Req: For O=C1C=C(c2ccnc3cc(Cl)ccc23)C[C@@H](c2ccc3c(c2)OCO3)C1 , write its inhibition.
Resp: 1.34

Req: For Cc1cccc(NS(=O)(=O)c2ccc(-c3cnc(C4CC4)o3)cc2)c1 , write its inhibition.
Resp: -5.68

Req: For Cn1c(NC(=O)c2ccccc2)nc2ccccc21 , write its inhibition.
Resp: 41.4

Req: For O=C1C(=O)N(CCCN2CCOCC2)C(c2ccc([N+](=O)[O-])cc2)/C1=C(\O)c1ccc2c(c1)OCCO2 (configuration not stated) , write its inhibition.
Resp: 33.9

Req: For CCOC(=O)C(Sc1ncc(C#N)c(N)n1)C(C)C (configuration not stated) , write its inhibition.
Resp: 5.66

Req: For COc1ccc(N2C(=O)/C(=C\c3ccco3)N=C2SCC(N)=O)cc1Cl , write its inhibition.
Resp: 8.83

Req: For CC(=O)c1ccc(Nc2nc(C(N)c3ccccc3Cl)cs2)cc1 (configuration not stated) , write its inhibition.
Resp: 29.2

Req: For CC1(C)CC(=O)C2=C(C1)NCN(CCCN1CCOCC1)C2 , write its inhibition.
Resp: 6.39

Req: For O=C(CN1CCCCCC1)Nc1c(Cl)cc(Cl)cc1Cl , write its inhibition.
Resp: 3.42

Req: For Cc1ccc(C(=O)COC(=O)CCCC(=O)NC2CCCCC2)cc1[N+](=O)[O-] , write its inhibition.
Resp: -3

Req: For Nc1nc(O)c(CC(=O)O)s1 , write its inhibition.
Resp: 5.96
